Just for reference, ChEMBL document CHEMBL4689842 is where these values come from.

Tested on: U2OS
PROTOCOL DETAILS: Multiplex assay against U2OS
Type: toxicity, cell-based
COND: human, 48 h, 1 µM, compound concentration 1 uM, replicate 1
METRIC: Population Apoptotic (%)

Solved cases (5 shown):
>  <MOLECULE>
Cc1nc(Cc2cccc(C(F)(F)F)c2)sc1-c1ccc(C(N)=O)nc1 [TP-024n]

>  <SYSTEM UNDER TEST>
U2OS

>  <Population Apoptotic (%)>
32%

$$$$
>  <MOLECULE>
COc1ccc(NS(=O)(=O)c2sc3ccc(Cl)cc3c2C)cc1N1CCNCC1.Cl

>  <SYSTEM UNDER TEST>
U2OS

>  <Population Apoptotic (%)>
36%

$$$$
>  <MOLECULE>
Nc1ccc(C(=O)Nc2cccc(-c3nc(N4CCOCC4)c4oc5ncccc5c4n3)c2)cn1

>  <SYSTEM UNDER TEST>
U2OS

>  <Population Apoptotic (%)>
57%

$$$$
>  <MOLECULE>
COc1cc2c(NC3CCN(C(C)C)CC3)nc(N3CCC(F)(F)CC3)nc2cc1OCCCN1CCCC1

>  <SYSTEM UNDER TEST>
U2OS

>  <Population Apoptotic (%)>
27%

$$$$
>  <MOLECULE>
CNc1oc(-c2cccc3ccccc23)nc1C#N

>  <SYSTEM UNDER TEST>
U2OS

>  <Population Apoptotic (%)>
56%

$$$$

INPUT: Give the measured Population Apoptotic (%) of Cc1cc2c(cc1N1C(=O)c3cccc4c(CCCO)ccc(c34)C1=O)n(C)c(=O)n2C .
OUTPUT: 65%

INPUT: Give the measured Population Apoptotic (%) of O=C(O)c1ccc2cc(-c3ccc(O)c(C45CC6CC(CC(C6)C4)C5)c3)ccc2c1 .
OUTPUT: 50%
